test system: Salmonella typhimurium; test: Genotoxicity in Salmonella typhimurium TA98 by Ames test in presence of S9 fractions; format: toxicity, organism-based, S9 Fraction; conditions: salmonella enterica subsp. enterica serovar typhimurium
measurement_label: Activity

O=C(Nc1nnn[nH]1)N1CCN(Cc2cccc(Oc3ccc(Cl)cc3)c2)CC1    Non-toxic
O=C(Nc1cnc2cc[nH]c2c1)N1CCN(Cc2cccc(Oc3ccc(Cl)cc3)c2)CC1    Toxic
Cc1nc2cc(NC(=O)N3CCN(Cc4cccc(Oc5ccc(Cl)cc5)c4)CC3)ccc2o1    Toxic
O=C(Nc1cccnc1)N1CCN(Cc2cccc(Oc3ccc(Cl)cc3)c2)CC1    Non-toxic
O=C(Nc1noc2ncccc12)N1CCN(Cc2cccc(Oc3ccc(Cl)cc3)c2)CC1    Non-toxic

Would you be so kind as to report Activity for each listed record?
1. O=C(Nc1cnc2[nH]ccc2c1)N1CCN(Cc2cccc(Oc3ccc(Cl)cc3)c2)CC1
2. O=C(Nc1cccnn1)N1CCN(Cc2cccc(Oc3ccc(Cl)cc3)c2)CC1
3. O=C(Nc1ccon1)N1CCN(Cc2cccc(Oc3ccc(Cl)cc3)c2)CC1
4. O=C(Nc1cccc2nccn12)N1CCN(Cc2cccc(Oc3ccc(Cl)cc3)c2)CC1
5. O=C(Nc1cnccn1)N1CCN(Cc2cccc(Oc3ccc(Cl)cc3)c2)CC1
6. O=C(Nc1cc[nH]n1)N1CCN(Cc2cccc(Oc3ccc(Cl)cc3)c2)CC1

*A*
1: Toxic; 2: Non-toxic; 3: Non-toxic; 4: Non-toxic; 5: Non-toxic; 6: Non-toxic
